The measured values listed here are drawn from PubChem BioAssay (NCI).

system: SK-OV-3 ovarian; experiment: NCI tumour cell line growth inhibition, 48 h; in the data active means GI50 below about 0.43 µM; inactive means the rest
Outcomes: yes (1) for active, no (0) for inactive

{"columns": ["molecular.string", "group.label"],
 "data": [
  ["COc1cc2c(c3oc(-c4ccc(O)cc4)c(O)c(=O)c13)CCC(C)(C)O2", "yes (1)"],
  ["COc1ccc(-c2nc3sc(-c4cc(OC)c(OC)c(OC)c4)nn3c2/C=C2/C(=O)Nc3ccc(F)cc32)cc1", "no (0)"],
  ["NS(=O)(=O)c1ccc(N(/C=C/C(=O)C(F)(F)F)CC(=O)c2ccc(F)cc2)cc1", "no (0)"],
  ["Cc1cc(I)cc(CNCCN(C)C)c1O", "no (0)"],
  ["CN1C(=O)C(c2c[nH]c3ccccc23)=C(c2c[nH]c3ccccc23)C1=O", "no (0)"]
]}

---

tested on: MDA-MB-231 breast; assay: NCI tumour cell line growth inhibition, 48 h
measured.metric: TGI

{"columns": ["compound", "measured.metric", "recorded.value"],
 "data": [
  ["COc1ccc2c(c1)/C(=C/c1c(O)[nH]c(=S)[nH]c1=O)C=N2", "TGI", "> 100 µM"],
  ["Sc1cccc2cccnc12", "TGI", "14.7 µM"],
  ["Cc1cc(I)cc(CNCCN(C)C)c1O", "TGI", "> 100 µM"],
  ["COC(=NC(C)C)NC(C)C", "TGI", "> 100 µM"],
  ["COc1ccc(N2C(=O)c3cc([N+](=O)[O-])cnc3S2(=O)=O)cc1", "TGI", "> 100 µM"],
  ["COc1ccc(-c2nc3sc(-c4cc(OC)c(OC)c(OC)c4)nn3c2/C=C2/C(=O)Nc3ccc(F)cc32)cc1", "TGI", "20.7 µM"],
  ["COC1=C(C(c2cc(OC)c(OC)c(OC)c2)c2cc3c(cc2OC)OCO3)C(=O)OC1 (stereo not drawn)", "TGI", "> 93.5 µM"],
  ["O=C1NN2CC(c3ccccc3)=NN=C2c2ccccc21", "TGI", "79.1 µM"]
]}

---

Reported TGI values are given for each entry in this list.
tested on: TK-10 renal; experiment: NCI tumour cell line growth inhibition, 48 h

{"columns": ["molecule", "TGI"],
 "data": [
  ["C=C(CO)C(=O)OC1CC(=C)C2CC(O)C(C)C2C2OC(=O)C(=C)C12 (configuration not stated)", "33.2 µM"],
  ["C#CCOC(=O)C(N)CC(N)=O (configuration not stated)", "> 100 µM"],
  ["CC1=C(O)C(=O)C=C2C1=CC=C1[C@@]2(C)CC[C@@]2(C)C3C[C@@H](C)C(=O)[C@@H](O)[C@]3(C)CC[C@]12C (some centres not stated)", "3.82 µM"],
  ["Cc1cn2cc(-c3cccs3)nc2s1", "> 100 µM"],
  ["CC(=O)c1ccc(Br)cc1NC1=CC(=O)c2ncccc2C1=O", "31.4 µM"],
  ["C[C@@H]1CN2[C@H]3[C@@H]1CC[C@]31CCC(=O)O[C@]1(C)[C@H]1CC[C@H]3CCC=C3[C@@H]12", "> 30 µM"],
  ["CC(C)(C)C(=O)/C=C(\\OB(F)F)C(C)(C)C", "> 100 µM"],
  ["NC(N)=N/N=C/c1c(-c2ccccc2[N+](=O)[O-])nc2sccn12", "57 µM"],
  ["Fc1ccc(Nc2nc(Cl)c3[nH]cnc3n2)cc1Cl", "> 100 µM"],
  ["N#CC(C(=O)CCCC(=O)Nc1ccccc1[N+](=O)[O-])c1c(Cl)cccc1Cl (configuration not stated)", "> 100 µM"],
  ["COc1ccc(-c2csc3c2-n2cccc2C3=O)cc1", "> 100 µM"],
  ["CCOC(=O)CC1=N/C(=N/C(=N)N[N+](=O)[O-])SC1", "> 100 µM"],
  ["ClC1=C(Cl)C(Cl)(C2(Cl)C(Cl)=C(Cl)C(Cl)=C2Cl)C(Cl)=C1Cl", "0.462 µM"],
  ["Clc1ccc(Cc2nc3ccccc3o2)cc1", "> 100 µM"],
  ["N=c1sc2ccccc2n1CCS (tested in a mixture with another compound)", "48.6 µM"],
  ["COc1ccc2c(c1)/C(=C/c1c(O)[nH]c(=S)[nH]c1=O)C=N2", "> 100 µM"],
  ["CC[C@@H]1/C=C/C=C/C[C@H](C)[C@@H](O)[C@@H](C)C(=O)[C@H](C)[C@@H](O)[C@H](C)C(=O)[C@H](C)[C@@H](O)[C@H](C)/C=C/C(=O)O[C@H]2[C@@H](C)[C@@H](CC1)O[C@@]1(CC[C@@H](C)[C@@H](CC(C)O)O1)[C@@H]2C (some centres not stated)", "> 23.6 µM"],
  ["C[N+]1([O-])C2CCC1CC(OC(=O)C(CO)c1ccccc1)C2 (configuration not stated)", "> 100 µM"],
  ["N#CCCNc1nonc1-c1nc2ccccc2n1CC(=O)c1ccc(N)cc1", "> 90.9 µM"],
  ["O=C(c1ccc2ccccc2c1)C1(I)S(=O)(=O)OCCOS1(=O)=O", "> 100 µM"],
  ["COC(=NC(C)C)NC(C)C", "> 100 µM"],
  ["C/C(CN1C(=O)c2ccccc2C1=O)=N\\NS(=O)(=O)c1ccc2ccccc2c1", "> 100 µM"],
  ["CC(=O)N1C/C(=C\\c2ccccc2)C(=O)/C(=C/c2ccccc2)C1", "34.8 µM"],
  ["O=C(CCc1nnc2s/c(=C\\c3ccc([N+](=O)[O-])cc3)c(=O)n12)Nc1ccc(Cl)c(Cl)c1", "> 100 µM"],
  ["COc1cc2c(cc1OS(C)(=O)=O)N=C[C@@H]1CCCN1C2=O", "> 100 µM"],
  ["CC(=O)OCC1OC(N2C(=O)[C@@H](Oc3ccccc3)[C@H]2/C=C/c2ccccc2)C(OC(C)=O)C(OC(C)=O)C1OC(C)=O (some centres not stated)", "> 100 µM"],
  ["COc1nc(NC2OC(COC(C)=O)C(OC(C)=O)C(OC(C)=O)C2OC(C)=O)c(N=CC=Nc2c(NC3OC(COC(C)=O)C(OC(C)=O)C(OC(C)=O)C3OC(C)=O)nc(OC)[nH]c2=O)c(=O)[nH]1 (configuration not stated)", "> 100 µM"]
]}

---

tested on: SK-MEL-28 melanoma; experiment: NCI tumour cell line growth inhibition, 48 h

{"columns": ["compound", "GI50"],
 "data": [
  ["O=C1NN2CC(c3ccccc3)=NN=C2c2ccccc21", "28100 nM"],
  ["CC(C)=CCc1cc2c(cc1O)C1=C(C(=O)C3=C(NCCS3(=O)=O)C1=O)C(C=C(C)C)O2 (stereo not given)", "3810 nM"],
  ["COc1cc2cc(NCc3cccc(Cl)c3)nc(C)c2cc1OC", "865 nM"],
  ["CC(C)(C)CC(C)(C)c1ccc(OCCO)cc1", "11.4 µg/mL"],
  ["Nc1c(C(=O)Nc2cccc(Cl)c2)sc2nc3c(cc12)C(=O)CCC3", "567 nM"]
]}

---

system: BT-549 breast; experiment: NCI tumour cell line growth inhibition, 48 h; in the data active means GI50 below about 0.43 µM; inactive means the rest
Outcomes: label 1 for active, label 0 for inactive

{"columns": ["compound", "group.label"],
 "data": [
  ["Cc1c(Cl)cccc1C(=O)Nc1nc2c(s1)CN(C(=O)Nc1cccc(C(F)(F)F)c1)CC2", "label 0"],
  ["COc1ccc(C2=NN(C(N)=S)C(c3ccc4c(c3)OCO4)C2)cc1 (configuration not stated)", "label 0"],
  ["COc1cccc2c1nc(C(F)F)n2-c1nc(-c2ccc(NS(=O)(=O)CCN(C)C)cc2)nc(N2CCOCC2)n1", "label 1"],
  ["ClC1=C(Cl)C(Cl)(C2(Cl)C(Cl)=C(Cl)C(Cl)=C2Cl)C(Cl)=C1Cl", "label 0"],
  ["O=S(=O)(NCCCNc1cc(-c2cn(-c3ccccc3)nc2-c2cccc(O)c2)ccn1)c1ccc(C(F)(F)F)cc1", "label 0"],
  ["Cn1cc(C2=C(c3ccsc3)C(=O)NC2=O)c2ccccc21", "label 0"],
  ["COC(=O)[C@@H](C)C[C@H](Cc1ccccc1)NC(=O)c1nc([C@@H](C[C@H](C(C)C)N(C)C(=O)[C@@H](NC(=O)[C@H]2C[C@H](O)CCN2C)C(C)C)OC(C)=O)sc1C(C)C", "label 1"]
]}

---

Reported TGI values are given for each entry in this list.
test system: DU-145 prostate; test: NCI tumour cell line growth inhibition, 48 h
Where a SMILES comes first, the peptide text is derived from it. Bridges are numbered along the chain shown (N, C = ends). The star is where a group is joined. Cbz = O=C(OCc1ccccc1)*

{"columns": ["molecule", "TGI"],
 "data": [
  ["COc1ccc(-c2nc3sc(-c4cc(OC)c(OC)c(OC)c4)nn3c2/C=C2/C(=O)Nc3ccc(F)cc32)cc1", "4.53 µM"],
  ["CC(C)(C)CC(C)(C)c1ccc(OCCO)cc1", "20.6 µg/mL"],
  ["N=c1sc2ccccc2n1CCS (tested in a mixture with another compound)", "46 µM"],
  ["CC(=O)OCC1C(=O)OCC1C(=O)N1Cc2cc3ccccc3nc2C1 (centres undefined)", "14 µM"],
  ["CN(Cc1cnc2nc(N)nc(N)c2n1)c1ccc(C(=O)NCCCS(=O)(=O)O)cc1", "> 100 µM"],
  ["CC(C)(C)[Si](C)(C)OCC1OC(n2cnc3c(N)ncnc32)C2OC(=S)OC12 (centres undefined)", "> 100 µM"],
  ["COc1ccc(N2C(=O)c3cc([N+](=O)[O-])cnc3S2(=O)=O)cc1", "> 100 µM"],
  ["C=CCC1(O)c2ccccc2C(=O)c2c(OCC(=O)OCC)ccc(OCC(=O)OCC)c21 (centres undefined)", "> 100 µM"],
  ["N#CCCNc1nonc1-c1nc2ccccc2n1CC(=O)c1ccc(N)cc1", "0.0984 µM"],
  ["O=C1C=CC2(C=C1)O[C@H](COCc1ccccc1)[C@@H](COCc1ccccc1)O2", "12.5 µM"],
  ["OCC(O)COCn1cc(Cn2ncc3c(SCc4ccccc4)ncnc32)nn1 (centres undefined)", "> 100 µM"],
  ["CNC(=O)C1CCCCNC(=O)CCC(NC(=O)OCc2ccccc2)C(=O)N1 (stereo not drawn) (Cbz-Glu-Lys-NHMe; lactam 1-2; configuration not given here)", "> 100 µM"],
  ["CC(=O)/C(=C\\c1ccc(Cl)cc1)c1ccccc1", "> 100 µM"],
  ["COc1cc2nc(-c3cccs3)nc(Nc3cccc([N+](=O)[O-])c3)c2cc1OC", "30 µM"],
  ["CCN1CCN(CCC(=O)Nc2cccc(-n3cc(-c4ccncc4)c(-c4ccc(Cl)c(OC)c4)n3)c2)CC1", "5.96 µM"],
  ["O=C(O)C(Cc1cc(I)c(O)c(I)c1)C1CCCCC1 (centres undefined)", "> 100 µM"],
  ["Fc1ccc(Nc2nc(Cl)c3[nH]cnc3n2)cc1Cl", "> 100 µM"],
  ["O=C(O)c1ccccc1CN1CCCC(C(=O)O)C1 (centres undefined)", "> 100 µM"],
  ["CC1CCCCCC(=O)c2c(O)cc(O)cc2CC(=O)O1 (centres undefined)", "> 100 µM"]
]}
